Source: patent US6479531B1

STUDY_SYSTEM: CCKB receptor (Mus musculus, UniProt P56481)
Construct: The whole brains from male mice (CD1 22-25 g; Charles River) were removed; from tissue; host or cells: cerebral cortex membranes of male CD1 mice
Sequence (P56481 whole entry): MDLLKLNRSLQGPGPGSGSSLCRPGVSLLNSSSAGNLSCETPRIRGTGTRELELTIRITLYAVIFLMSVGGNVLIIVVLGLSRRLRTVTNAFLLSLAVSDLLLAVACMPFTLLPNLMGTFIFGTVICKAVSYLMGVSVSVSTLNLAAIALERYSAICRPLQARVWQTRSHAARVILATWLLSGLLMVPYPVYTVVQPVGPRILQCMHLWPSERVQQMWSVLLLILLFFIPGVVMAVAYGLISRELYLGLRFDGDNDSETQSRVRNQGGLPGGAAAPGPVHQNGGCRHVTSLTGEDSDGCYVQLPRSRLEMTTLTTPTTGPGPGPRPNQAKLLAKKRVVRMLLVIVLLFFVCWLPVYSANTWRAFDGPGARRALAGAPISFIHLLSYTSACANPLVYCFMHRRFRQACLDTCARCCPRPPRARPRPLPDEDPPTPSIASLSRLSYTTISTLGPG
RUN_DESCRIPTION: CCKB receptor radioligand binding assay in mouse cortical membranes
MEASUREMENT_PARAMETERS: [125I]-CCK8(S) 200 pM, 150 min at 21±3°, read-out: CCKB pKi (converted)
OBSERVED_PROPERTY: log10(Ki) (log10 of the value in µM)
A value of 2 here means Ki of 100 in µM, since values are log10.

Recorded results for 6 molecules are shown here.
| MOLECULE | STUDY_SYSTEM | log10(Ki) |
| --- | --- | --- |
| Cc1ccc(NC(=O)c2nc(C3CCCCC3)[nH]c2CCC2CCCCCC2)cc1C(=O)O | CCKB receptor (Mus musculus, UniProt P56481) | -1.55 |
| Cc1ccc(NC(=O)c2nc(C3CC4CCC3C4)[nH]c2CCC23CC4CC(CC(C4)C2)C3)cc1C(=O)O (racemic) | CCKB receptor (Mus musculus, UniProt P56481) | -2.68 |
| CC(C)C1CCC(c2nc(C(=O)Nc3cccc(C(=O)O)c3)c(CCC34CC5CC(CC(C5)C3)C4)[nH]2)CC1 (stereo not shown) | CCKB receptor (Mus musculus, UniProt P56481) | -0.80 |
| CN1CCC[C@@H]1c1nc(C(=O)Nc2cccc(C(=O)O)c2)c(CCC23CC4CC(CC(C4)C2)C3)[nH]1 | CCKB receptor (Mus musculus, UniProt P56481) | -0.72 |
| O=C(O)c1cccc(NC(=O)c2nc(-c3c(F)cccc3F)[nH]c2CCC23CC4CC(CC(C4)C2)C3)c1 | CCKB receptor (Mus musculus, UniProt P56481) | -0.83 |
| O=C(Nc1cc(-c2nnn[nH]2)cc(-c2nnn[nH]2)c1)c1cc(-c2ccccc2)[nH]c1CCC12CC3CC(CC(C3)C1)C2 | CCKB receptor (Mus musculus, UniProt P56481) | -0.64 |

Let us examine a further case.
Sample O=C(O)c1cccc(NC(=O)c2nc(-c3ccccn3)[nH]c2CCC23CC4CC(CC(C4)C2)C3)c1 — what was its log10(Ki)?
-0.61

* * *

STUDY_SYSTEM: gastrin receptor (Rattus norvegicus, UniProt P30553)
Construct: The stomach was excised and flushed with ca. 1 ml of unbuffered physiological saline solution; from tissue; host or cells: isolated whole stomach of immature rats (ca. 21 days old)
Sequence (P30553 whole entry): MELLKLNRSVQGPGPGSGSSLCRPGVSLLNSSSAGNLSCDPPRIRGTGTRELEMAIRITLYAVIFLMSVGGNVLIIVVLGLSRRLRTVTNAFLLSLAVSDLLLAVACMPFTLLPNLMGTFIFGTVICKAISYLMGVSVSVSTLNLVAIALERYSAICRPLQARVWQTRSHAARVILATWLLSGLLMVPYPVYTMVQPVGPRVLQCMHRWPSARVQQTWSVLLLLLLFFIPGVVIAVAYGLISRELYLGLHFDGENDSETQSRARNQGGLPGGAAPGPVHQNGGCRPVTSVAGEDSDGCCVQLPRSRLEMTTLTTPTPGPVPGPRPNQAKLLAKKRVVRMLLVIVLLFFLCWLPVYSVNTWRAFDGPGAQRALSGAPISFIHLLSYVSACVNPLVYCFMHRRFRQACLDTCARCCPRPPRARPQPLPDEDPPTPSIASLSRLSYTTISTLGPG
RUN_DESCRIPTION: gastrin antagonist activity in immature rat stomach assay (pentagastrin dose-response, acid secretion)
MEASUREMENT_PARAMETERS: isolated immature rat stomach, cumulative pentagastrin dose-response curves
OBSERVED_PROPERTY: Gastrin pKb
Numbers only.

Recorded results for 5 molecules are shown here.
| MOLECULE | OBSERVED_PROPERTY | VALUE_REPORTED |
| --- | --- | --- |
| O=C(O)c1cccc(NC(=O)c2nc([C@@H]3CC4C=C[C@@H]3C4)[nH]c2COC23CC4CC(CC(C4)C2)C3)c1 | Gastrin pKb | 8.43 |
| Cc1ccc(NC(=O)c2nc([C@@H]3CC4C=C[C@H]3C4)[nH]c2COC23CC4CC(CC(C4)C2)C3)cc1C(=O)O | Gastrin pKb | 8.55 |
| Cc1ccc(NC(=O)c2nc(C3CCCCC3)[nH]c2CCC23CC4CC(CC(C4)C2)C3)cc1C(=O)O | Gastrin pKb | 7.65 |
| O=C(O)c1cccc(NC(=O)c2nc([C@H]3CC4C=C[C@H]3C4)[nH]c2COC23CC4CC(CC(C4)C2)C3)c1 | Gastrin pKb | 8.61 |
| O=C(O)c1cccc(NC(=O)c2nc([C@@H]3CC4CC[C@@H]3C4)[nH]c2COC23CC4CC(CC(C4)C2)C3)c1 | Gastrin pKb | 8.57 |

I have 5 molecules here; please give me Gastrin pKb for each one.
1. O=C(O)c1cccc(NC(=O)c2nc(C3CC4C=CC3C4)[nH]c2COC23CC4CC(CC(C4)C2)C3)c1 (racemic)
2. O=C(O)c1cccc(NC(=O)c2nc([C@H]3CC4CC[C@H]3C4)[nH]c2COC23CC4CC(CC(C4)C2)C3)c1
3. O=C(Nc1cccc(CC(O)C(=O)O)c1)c1nc(C2CCCCC2)[nH]c1CCC12CC3CC(CC(C3)C1)C2 (racemic)
4. O=C(O)Cc1cccc(NC(=O)c2nc(C3CC4CCC3C4)[nH]c2CCC23CC4CC(CC(C4)C2)C3)c1 (racemic)
5. Cc1ccc(NC(=O)c2nc([C@H]3CC4C=C[C@@H]3C4)[nH]c2COC23CC4CC(CC(C4)C2)C3)cc1C(=O)O

[8.71, 9.12, 7.01, 6.89, 8.74]
